Target: GRK2 (Homo sapiens)
Sequence (P25098 1-689): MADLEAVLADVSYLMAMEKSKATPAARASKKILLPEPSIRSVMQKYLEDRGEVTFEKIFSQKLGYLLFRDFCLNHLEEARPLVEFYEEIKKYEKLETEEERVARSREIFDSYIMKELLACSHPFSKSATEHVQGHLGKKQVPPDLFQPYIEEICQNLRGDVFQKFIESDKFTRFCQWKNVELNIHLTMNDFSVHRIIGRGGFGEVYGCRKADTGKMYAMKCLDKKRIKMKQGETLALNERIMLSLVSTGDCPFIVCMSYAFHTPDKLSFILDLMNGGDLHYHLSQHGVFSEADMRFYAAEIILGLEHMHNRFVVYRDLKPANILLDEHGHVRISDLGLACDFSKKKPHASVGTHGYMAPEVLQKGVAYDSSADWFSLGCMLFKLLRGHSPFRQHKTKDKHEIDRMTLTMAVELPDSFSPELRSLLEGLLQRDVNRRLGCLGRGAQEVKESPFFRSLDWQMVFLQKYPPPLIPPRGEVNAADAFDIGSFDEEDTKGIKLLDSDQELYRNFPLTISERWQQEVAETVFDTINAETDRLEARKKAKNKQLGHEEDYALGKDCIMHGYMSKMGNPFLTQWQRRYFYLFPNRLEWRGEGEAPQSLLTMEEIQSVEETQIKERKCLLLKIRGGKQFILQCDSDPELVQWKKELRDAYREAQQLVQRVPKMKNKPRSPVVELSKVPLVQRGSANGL
Assay: GRK2 Degradation Assay and Western Blot in PAXF1657 cells
Format: cell-based
Parameters: endogenous in cells; host or cells: PAXF1657
Conditions: 1 uM, PAXF1657 EV, 24 hrs; read-out: % GRK2 degradation at 1 uM in PAXF1657 EV (24 hrs)
assay readout: inhibition at 1 µM (%)

Some molecules with recorded inhibition at 1 µM:
INSERT INTO assay_data (molecule, unit_label, endpoint_result) VALUES
  ('Cc1ncsc1-c1ccc(CNC(=O)[C@@H]2C[C@@H](O)CN2C(=O)[C@@H](NC(=O)CCCOc2cccc(CNC(=O)c3cccc(NCc4nnc(-c5ccncn5)n4C)c3)c2)C(C)(C)C)cc1', '%', 11),
  ('Cn1c(CNc2cccc(C(=O)NCc3cccc(OCCCCCCn4cc(CCCC(=O)Nc5cccc6c5CN(C5CCC(=O)NC5=O)C6=O)nn4)c3)c2)nnc1-c1ccncn1 (stereo not drawn)', '%', 55),
  ('Cn1c(CNc2cccc(C(=O)NCc3ccc(OCCCCCCOCCOCCOCCCCCC(=O)Nc4cccc5c4CN(C4CCC(=O)NC4=O)C5=O)cc3)c2)nnc1-c1ccncn1 (stereo not drawn)', '%', 64),
  ('Cc1ncsc1-c1ccc(CNC(=O)[C@@H]2C[C@@H](O)CN2C(=O)[C@@H](NC(=O)CCOCCOCCOCCNC(=O)CCCCOc2cccc(CNC(=O)c3cccc(NCc4nnc(-c5ccncn5)n4C)c3)c2)C(C)(C)C)cc1', '%', -14);

[A] Cc1ncsc1-c1ccc(CNC(=O)[C@@H]2C[C@@H](O)CN2C(=O)[C@@H](NC(=O)CCCc2cn(CCCCCCCOc3cccc(CNC(=O)c4cccc(NCc5nnc(-c6ccncn6)n5C)c4)c3)nn2)C(C)(C)C)cc1
[B] Cc1ncsc1-c1ccc(CNC(=O)[C@@H]2C[C@@H](O)CN2C(=O)[C@@H](NC(=O)CCCc2cn(CCCCCOc3cccc(CNC(=O)c4cccc(NCc5nnc(-c6ccncn6)n5C)c4)c3)nn2)C(C)(C)C)cc1
[in] Could you determine which record has the numerically smaller inhibition at 1 µM? Candidates: A and B Refer to your chosen item by its label in the answer.
[out] B

[1] Cc1ncsc1-c1ccc(CNC(=O)[C@@H]2C[C@@H](O)CN2C(=O)[C@@H](NC(=O)CCCCCOCCOCCOCCCCCCOc2cccc(CNC(=O)c3cccc(NCc4nnc(-c5ccncn5)n4C)c3)c2)C(C)(C)C)cc1
[2] CN[C@@H](C)C(=O)N[C@H](C(=O)N1CCC[C@H]1c1nc(C(=O)c2cccc(OCc3cn(CCCCCCOc4cccc(CNC(=O)c5cccc(NCc6nnc(-c7ccncn7)n6C)c5)c4)nn3)c2)cs1)C1CCCCC1
[in] Could you determine which record has the numerically smaller inhibition at 1 µM? Candidates: 1 and 2 Refer to your chosen item by its label in the answer.
[out] 1
(1: 44%, 2: 70%)

###

Target: GRK2 (Homo sapiens)
Experiment: GRK2 Degradation Assay and Western Blot in PAXF1657 cells
Assay type: cell-based
Parameters: endogenous in cells; host or cells: PAXF1657
Settings: Conc 3 uM; read-out: Degradation Assay - 3 point: Degradation (%)
Where a name gives a salt, the structure may show the parent alone.
assay readout: inhibition at 3 µM (%)

[P] C[C@@H](NC(=O)c1cccc(NCc2nnc(-c3ccncn3)n2C)c1)c1cccc(OCCCCCCOCC(=O)N2CCN(c3ccc4c(c3)CN(C3CCC(=O)NC3=O)C4=O)CC2)c1 (some centres unmarked)
[Q] C[C@@H](NC(=O)c1cccc(NCc2nnc(-c3ccncn3)n2C)c1)c1ccc(OCCN2CCN(c3ccc4c(c3)CN(C3CCC(=O)NC3=O)C4=O)CC2)cc1 (some centres unmarked) [Compound D174, hydrochloride]
[R] Cc1ncsc1-c1ccc(CNC(=O)[C@@H]2C[C@@H](O)CN2C(=O)[C@@H](NC(=O)CCCOCCOCCOCCCCCCCCOc2ccc([C@@H](C)NC(=O)c3cccc(NCc4nnc(-c5ccncn5)n4C)c3)cc2)C(C)(C)C)cc1
[in] Sort key: inhibition at 3 µM. Order: high to low. Scope: items listed above. Output spec: labels arranged per the requested ranking.
[out] P, Q, R

###

Target: GRK2 (Homo sapiens, UniProt P25098)
Sequence (P25098 1-689): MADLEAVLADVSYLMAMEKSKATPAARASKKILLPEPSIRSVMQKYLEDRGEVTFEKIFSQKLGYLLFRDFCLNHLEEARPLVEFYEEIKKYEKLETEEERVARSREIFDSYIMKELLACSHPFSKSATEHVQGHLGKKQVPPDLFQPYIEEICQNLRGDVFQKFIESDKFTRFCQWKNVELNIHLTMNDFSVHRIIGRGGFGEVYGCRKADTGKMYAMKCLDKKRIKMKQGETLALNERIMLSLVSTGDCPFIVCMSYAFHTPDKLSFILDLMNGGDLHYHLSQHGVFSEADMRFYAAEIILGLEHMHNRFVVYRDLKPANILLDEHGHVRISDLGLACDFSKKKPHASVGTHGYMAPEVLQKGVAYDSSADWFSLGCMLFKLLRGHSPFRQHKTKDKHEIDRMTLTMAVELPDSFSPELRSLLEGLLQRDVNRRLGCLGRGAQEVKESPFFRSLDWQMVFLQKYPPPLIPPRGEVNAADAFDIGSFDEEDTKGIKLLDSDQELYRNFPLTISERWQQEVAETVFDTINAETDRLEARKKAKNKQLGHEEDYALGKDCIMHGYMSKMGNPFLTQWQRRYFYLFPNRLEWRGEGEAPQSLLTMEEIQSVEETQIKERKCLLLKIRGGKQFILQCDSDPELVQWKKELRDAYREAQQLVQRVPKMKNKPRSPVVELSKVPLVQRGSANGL
Test: GRK2 Degradation Assay and Western Blot in PAXF1657 cells
Format: cell-based
Parameters: endogenous in cells; host or cells: PAXF1657
Details: Conc 0.3 uM; read-out: Degradation Assay - 3 point: Degradation (%)
assay readout: inhibition at 0.3 µM (%)

INSERT INTO measurements (compound, endpoint_result) VALUES
  ('C[C@@H](NC(=O)c1cccc(NCc2nnc(-c3ccncn3)n2C)c1)c1cccc(OCCCCCCOCCOCCOCCCCCC(=O)N2CCN(c3ccc4c(c3)CN(C3CCC(=O)NC3=O)C4=O)CC2)c1 (some centres unmarked)', 36.7);

[a] C[C@@H](NC(=O)c1cccc(NCc2nnc(-c3ccncn3)n2C)c1)c1cccc(OCCN2CCN(c3ccc4c(c3)CN(C3CCC(=O)NC3=O)C4=O)CC2)c1 (some centres unmarked)
[b] C[C@@H](NC(=O)c1cccc(NCc2nnc(-c3ccncn3)n2C)c1)c1cccc(OCCCCCCn2cc(CCC(=O)Nc3cccc4c3CN(C3CCC(=O)NC3=O)C4=O)nn2)c1 (some centres unmarked)
[c] C[C@@H](NC(=O)c1cccc(NCc2nnc(-c3ccncn3)n2C)c1)c1cccc(OCCCCCCOCCOCCOCCC(=O)N2CCN(c3ccc4c(c3)CN(C3CCC(=O)NC3=O)C4=O)CC2)c1 (some centres unmarked)
[d] C[C@@H](NC(=O)c1cccc(NCc2nnc(-c3ccncn3)n2C)c1)c1cccc(OCCCCCOCCCOCCNc2ccc3c(c2)CN(C2CCC(=O)NC2=O)C3=O)c1 (some centres unmarked)
[in] Sort by inhibition at 0.3 µM, descending. Output spec: labels arranged per the requested ranking.
[out] d, c, b, a

###

Target: GRK2 (Homo sapiens)
Sequence (P25098 1-689): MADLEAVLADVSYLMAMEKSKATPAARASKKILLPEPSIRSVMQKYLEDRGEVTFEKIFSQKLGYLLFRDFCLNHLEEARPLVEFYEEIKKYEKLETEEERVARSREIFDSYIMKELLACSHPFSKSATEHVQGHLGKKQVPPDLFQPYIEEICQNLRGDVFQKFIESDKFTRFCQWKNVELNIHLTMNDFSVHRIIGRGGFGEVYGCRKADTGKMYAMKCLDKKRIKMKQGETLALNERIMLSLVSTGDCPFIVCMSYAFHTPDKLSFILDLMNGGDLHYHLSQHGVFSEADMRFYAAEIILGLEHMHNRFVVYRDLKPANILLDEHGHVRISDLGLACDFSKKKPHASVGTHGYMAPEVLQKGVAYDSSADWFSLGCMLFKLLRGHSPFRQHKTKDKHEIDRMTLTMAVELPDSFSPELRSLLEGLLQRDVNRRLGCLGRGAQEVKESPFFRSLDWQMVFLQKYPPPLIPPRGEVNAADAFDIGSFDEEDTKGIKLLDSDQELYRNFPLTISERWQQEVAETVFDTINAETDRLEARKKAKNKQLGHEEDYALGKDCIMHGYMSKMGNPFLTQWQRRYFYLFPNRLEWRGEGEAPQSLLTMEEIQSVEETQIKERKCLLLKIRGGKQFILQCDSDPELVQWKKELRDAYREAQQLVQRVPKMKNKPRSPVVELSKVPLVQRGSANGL
Experiment: GRK2 Degradation Assay and Western Blot in PAXF1657 cells
Assay type: cell-based
Set-up: endogenous in cells; host or cells: PAXF1657
Settings: Conc 1 uM; read-out: Degradation Assay - 3 point: Degradation (%)
assay readout: inhibition at 1 µM (%)

Some compounds with recorded inhibition at 1 µM:
INSERT INTO measurements (compound, unit_label, endpoint_result) VALUES
  ('C[C@@H](NC(=O)c1cccc(NCc2nnc(-c3ccncn3)n2C)c1)c1cccc(OCC(=O)N2CCN(c3ccc4c(c3)CN(C3CCC(=O)NC3=O)C4=O)CC2)c1 (some centres unmarked)', '%', 24.4),
  ('C[C@@H](NC(=O)c1cccc(NCc2nnc(-c3ccncn3)n2C)c1)c1cccc(OCCCCCCOCCOCCOCCCCCC(=O)N2CCN(c3ccc4c(c3)CN(C3CCC(=O)NC3=O)C4=O)CC2)c1 (some centres unmarked)', '%', 78.1),
  ('C[C@@H](NC(=O)c1cccc(NCc2nnc(-c3ccncn3)n2C)c1)c1ccc(OCCCCCCOCCOCCOCCCCCC(=O)Nc2cccc3c2CN(C2CCC(=O)NC2=O)C3=O)cc1 (some centres unmarked)', '%', 81.6);

[A] Cc1ncsc1-c1ccc(CNC(=O)[C@@H]2C[C@@H](O)CN2C(=O)[C@@H](NC(=O)CCCCCOCCOCCOCCCCCCOc2cccc([C@@H](C)NC(=O)c3cccc(NCc4nnc(-c5ccncn5)n4C)c3)c2)C(C)(C)C)cc1
[B] C[C@@H](NC(=O)c1cccc(NCc2nnc(-c3ccncn3)n2C)c1)c1ccc(OCC(=O)N2CCN(c3ccc4c(c3)CN(C3CCC(=O)NC3=O)C4=O)CC2)cc1 (some centres unmarked)
[in] Higher inhibition at 1 µM between A and B ? Refer to your chosen item by its label in the answer.
[out] A
